Numbers sourced from the RNAGym collection of RNA variant scans (doi:10.7554/elife.90254).

B1: LINE1-full (parent)
chain: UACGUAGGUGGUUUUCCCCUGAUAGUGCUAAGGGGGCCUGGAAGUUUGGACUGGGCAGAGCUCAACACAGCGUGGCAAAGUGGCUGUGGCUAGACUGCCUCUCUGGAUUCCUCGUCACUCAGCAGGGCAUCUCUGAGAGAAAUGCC

# Variants of: B1
# ASSAY_SUMMARY: self-cleavage, relative activity (ratio to wild type); higher = more cleavage; in vitro, sequencing; the parent is a self-cleaving ribozyme
Record Satisfied whenever self-cleavage is at 1 or higher; record Not satisfied when lower.

sequence_code=UACGUAGGUGGUUUUCCCCUGAUAGUGCUAAGGGGGCCUGGAAGUUUGGACUGUGCAGAGCUCAACACGGCGUGGCAAAGUGGCUGUGGCUAGACUGCCUCUCUGGAUUCCUCGUCACUCAGCAGGGCAUCUCUGAGAGAAAUGCC assigned_class="Not satisfied"
sequence_code=UACGUAGGUGGUUUUCCCCUGAUAGUGCUAAGGGGGCCUGGAAGCUUGGACUGGGCAGAGCUCAACACAGCGUGGCAAAAUGGCUGUGGCUAGACUGCCUCUCUGGAUUCCUCGUCACUCAGCAGGGCAUCUCUGAGAGAAAUGCC assigned_class=Satisfied
sequence_code=UACGUAGGUGGUUUUCCCCUGAUGGUGCUAAGGGGGCCUGGAAGUUUGGACUGGGCAGAGCUCAACACAGCGUGGCAAAGUGGCUGUGGCUAGACUGCCUCUCUGGAUUCCUCGUCACUCAGCAGGGCAUCUCUGAGAGAAACGCC assigned_class=Satisfied
sequence_code=UACGUAGGUGGUUUUCCCCUGAUAGUGCUAGGGGGGCCUGGAAGUUUGGACUGGGCAGAGCUCAACACAGCGUGGCAAAGUGGCUGUGGCUAGACUGCCUCUCUGGAUUCCUCGUCACACAGCAGGGCAUCUCUGAGAGAAAUGCC assigned_class=Satisfied
sequence_code=UACGUAGGUGGUUUUCCCCUGAUAGUGCUAUGGGGGCCUGGAAGUUUGGACCGGGCAGAGCUCAACACAGCGUGGCAAAGUGGCUGUGGCUAGACUGCCUCUCUGGAUUCCUCGUCACUCAGCAGGGCAUCUCUGAGAGAAAUGCC assigned_class="Not satisfied"
sequence_code=UACGUAGGUGGUUUUCCCCUGAUAGAGCUAAGGGGGCCUGGAAGUUUGGACUGGGCAGAGCUCAACACAGCGUGGCAAAGUGGCUGUGGCUAGACUGCCUCUCUGGAUUCCUCGUCACUCAGCCGGGCAUCUCUGAGAGAAAUGCC assigned_class=Satisfied
sequence_code=UACGUAGGUGGUUUUCCCCCGAUAGUGCUAAGGGGGCCUGGAAGUUUGGACUGGGCAGAGCUCAACACAGCGAGGCAAAGUGGCUGUGGCUAGACUGCCUCUCUGGAUUCCUCGUCACUCAGCAGGGCAUCUCUGAGAGAAAUGCC assigned_class=Satisfied
sequence_code=UACGUAGGUGGUUUUCCCCUGAUAGUGCUAAGGGGGCCUGGAAGUUUGGACCGGGCAGAGCUCAACACAGCGUGGCAAAGUGGCUGUGGCUAGACUGCCUCUCUGGAUUCCUCGUCACUCAGCAGGGCAUCUCUGAGAGAAAAGCC assigned_class=Satisfied
sequence_code=UACGUAGGUGGUCUUCCCCUGAUAGUGCUAAGGGGGCCUGGAAGUUUGGACUGGGCAGAGCUCAACACAGCGUGGCAAAGUGGCUGUGGCUAGACUGCCUCUCUGGCUUCCUCGUCACUCAGCAGGGCAUCUCUGAGAGAAAUGCC assigned_class="Not satisfied"
sequence_code=UACGUAGGUGGUUUUCCCCUGAUAGUGCUAAGGGGGCCUGGAAGUUUGGACUGGGCAGAGCUCUACAAAGCGUGGCAAAGUGGCUGUGGCUAGACUGCCUCUCUGGAUUCCUCGUCACUCAGCAGGGCAUCUCUGAGAGAAAUGCC assigned_class="Not satisfied"
sequence_code=UACGUAGGUGGUUUUCCCCUGAUAGUGCUAAGGGGGCCUGGAAGUAAGGACUGGGCAGAGCUCAACACAGCGUGGCAAAGUGGCUGUGGCUAGACUGCCUCUCUGGAUUCCUCGUCACUCAGCAGGGCAUCUCUGAGAGAAAUGCC assigned_class=Satisfied
